test system: WHIM30 (cells of a triple-negative basal-like breast cancer xenograft); test: cell viability (% of vehicle); higher = less cytotoxic; settings: 10 µM; 72 h;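 note: PDX cells carrying CMV promoter-driven luciferase, viability read as total photon flux per second by IVIS imaging following D-luciferin, vehicle control 0.1% DMSO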
test readout: cell viability

compound	test readout	result value
O=P1(NCCCl)OCCCN1CCCl (stereo not given) [Ifosfamide]	cell viability	109
CN(C)C1C(=O)C(C(N)=O)=C(O)C2(O)C(=O)C3=C(O)c4c(O)cccc4C(C)(O)C3C(O)C12 (stereo not given)	cell viability	121
O=C(O)c1nn(Cc2ccc(Cl)cc2Cl)c2ccccc12	cell viability	139
CCCN1CC(CSC)CC2c3cccc4[nH]cc(c34)CC21.CS(=O)(=O)O (stereo not given) [Pergolide mesylate]	cell viability	110
CN1[C@@H]2C[C@@H](O)C[C@H]1[C@@H]1O[C@@H]12	cell viability	144
Cc1cccc(C(C)c2cnc[nH]2)c1C.Cl (stereo not given) [Dexmedetomidine HCl]	cell viability	112
CCC[C@H](C)[C@@]1(CC)C(=O)N=C([O-])NC1=O.[Na+] [Pentobarbital sodium salt]	cell viability	99.4
CC12CC(=CO)C(=O)CC1CCC1C2CCC2(C)C1CCC2(C)O (stereo not given)	cell viability	135
CC(=O)O[C@@]12CO[C@@H]1C[C@@H](O)[C@@]1(C)C(=O)[C@@H](O)C3=C(C)[C@@H](O)C[C@@](O)([C@@H](OC(=O)c4ccccc4)[C@H]21)C3(C)C	cell viability	126
CC12CCC3C(CC=C4CC(O)CCC43C)C1CCC2=O (stereo not given) [Dehydroepiandrosterone (DHEA)]	cell viability	111
NC(=O)CN1CC(O)CC1=O (stereo not given)	cell viability	134
CN(C)C1C(=O)C(C(N)=O)=C(O)C2(O)C(=O)C3=C(O)c4c(O)cccc4C(C)(O)C3CC12.Cl (stereo not given) [Tetracycline Hydrochloride]	cell viability	116
CCC1(C)CC(=O)NC(=O)C1 [Bemegride]	cell viability	97.2
CC(C)CC(CN)CC(=O)O (stereo not given)	cell viability	111
Cc1cccc(C(C)c2cnc[nH]2)c1C.Cl (stereo not given) [Medetomidine HCl]	cell viability	113
CN1C2CCC1CC(OC(=O)C(CO)c1ccccc1)C2.CN1C2CCC1CC(OC(=O)C(CO)c1ccccc1)C2.O.O=S(=O)(O)O (stereo not given)	cell viability	98.4
CCOC(=O)c1cncn1C(C)c1ccccc1 (stereo not given) [Etomidate]	cell viability	117
CCCCCCCCCCCCCCCC[N+](C)(C)C.[Br-] [Cetrimonium Bromide (CTAB)]	cell viability	35.6
C[N+]1(C)[C@@H]2C[C@@H](OC(=O)C(CO)c3ccccc3)C[C@H]1[C@@H]1O[C@@H]12.[Br-] (stereo not given in full)	cell viability	139
COc1cc2c(cc1OC)C13CCN4CC5=CCOC6CC(=O)N2C1C6C5CC43 (stereo not given)	cell viability	96.6
CCN(C)C(=O)Oc1cccc(C(C)N(C)C)c1 (stereo not given)	cell viability	118
C[C@]12COC(=O)C[C@@H]1CC[C@@H]1[C@@H]2CC[C@@]2(C)[C@H]1CC[C@]2(C)O	cell viability	110
Cn1c(COP(=O)(NCCBr)NCCBr)cnc1[N+](=O)[O-]	cell viability	107
CN1c2ccccc2C(NCCCCCCC(=O)[O-])c2ccc(Cl)cc2S1(=O)=O.[Na+] (stereo not given) [Tianeptine sodium]	cell viability	142
C=CCC1(O)CCC2C3CCC4=CC(=O)CCC4=C3C=CC21C (stereo not given)	cell viability	141

====

system: WHIM2 (cells of a triple-negative basal-like breast cancer xenograft); assay: cell viability (% of vehicle); higher = less cytotoxic; conditions: 10 µM; 72 h
test readout: cell viability

molecule	test readout	result value
Nc1nc(N)nc(NC2CC2)n1	cell viability	105
COc1ccc(C(=O)N2CCCC2=O)cc1	cell viability	94.8
O=C(OC1CC2CCC(C1)[N+]21CCCC1)C(O)(c1ccccc1)c1ccccc1.[Cl-] (stereo not drawn) [Trospium chloride]	cell viability	110

====

tested on: HCI16 (cells of a triple-negative basal-like breast cancer xenograft); experiment: cell viability (% of vehicle); higher = less cytotoxic; details: 10 µM; 72 h
Labelling: cell viability reported below 100 becomes 1 (yes); at or above becomes 0 (no).

molecule	system tested	label
Br.COC(=O)C1=CCCN(C)C1 [Arecoline hydrobromide]	HCI16	0 (no)
C#CC1(O)C=CC2C3CCC4=CC(=O)CCC4C3CCC21CC (stereo unspecified)	HCI16	0 (no)
CCC[C@H](C)[C@@]1(CC)C(=O)N=C([O-])NC1=O.[Na+] [Pentobarbital sodium salt]	HCI16	1 (yes)
CN1c2ccccc2C(NCCCCCCC(=O)[O-])c2ccc(Cl)cc2S1(=O)=O.[Na+] (stereo unspecified) [Tianeptine sodium]	HCI16	0 (no)

====

Reported cell viability values are given for each entry in this list.
test system: HCI16; assay: cell viability (% of vehicle); higher = less cytotoxic; settings: 10 µM; 72 h

molecule	cell viability
COc1ccc(C(=O)N2CCCC2=O)cc1	95.4
CN(C)C1C(=O)C(C(N)=O)=C(O)C2(O)C(=O)C3=C(O)c4c(O)cccc4C(C)(O)C3CC12.Cl (stereo unspecified) [Tetracycline Hydrochloride]	87.5
NC(Cc1ccc(N(CCCl)CCCl)cc1)C(=O)O (stereo unspecified)	63.1
C[N+](C)(C)CCCCCCCCCC[N+](C)(C)C.[Br-].[Br-] [Decamethonium Bromide]	105
CC(C)CC(CN)CC(=O)O (stereo unspecified)	70.8
CN(C)C1C(=O)C(C(N)=O)=C(O)C2(O)C(=O)C3=C(O)c4c(O)cccc4C(C)(O)C3C(O)C12 (stereo unspecified)	122
CCC1=C[C@H]2CN3CCc4c([nH]c5ccccc45)[C@@](C(=O)OC)(C2)[C@@H]13	124
CCCC1CC(=O)N(C(CC)C(N)=O)C1 (stereo unspecified)	101
Cc1cccc(Cc2cnc[nH]2)c1C.Cl [Detomidine HCl]	92
Cl.Cn1c(CCCC(=O)O)nc2cc(N(CCCl)CCCl)ccc21 [Bendamustine HCl]	77.4
C[C@@H]1CC[C@H]2[C@@H](C)C(=O)O[C@@H]3OC4(C)CC[C@@H]1[C@]32OO4	153
O=C(OC1C[N+]2(CCCOc3ccccc3)CCC1CC2)C(O)(c1cccs1)c1cccs1.[Br-] (stereo unspecified) [Aclidinium Bromide]	93.9
Nc1nc(N)nc(NC2CC2)n1	134
CCC1(c2cccc(O)c2)CCCCN(C)C1.Cl (stereo unspecified) [Meptazinol HCl]	112
C=CCC1(O)CCC2C3CCC4=CC(=O)CCC4=C3C=CC21C (stereo unspecified)	150
CCOC(=O)c1cncn1C(C)c1ccccc1 (stereo unspecified) [Etomidate]	77.5

====

tested on: HCI16; assay: cell viability (% of vehicle); higher = less cytotoxic; settings: 10 µM; 72 h
Reported cell viability values are given for each entry in this list.
test readout: cell viability

compound	test readout	result value
Cc1cc(C(C#N)c2ccc(Cl)cc2)c(Cl)cc1NC(=O)c1cc(I)cc(I)c1O (centres undefined) [Closantel]	cell viability	105
N#Cc1ccccc1-c1cc(-c2ccccn2)cn(-c2ccccc2)c1=O [Perampanel]	cell viability	70.4
OC(c1ccccc1)(c1ccccc1)C1CCNCC1 [Azacyclonol]	cell viability	110
Cc1cccc(C)c1NC(=O)CN1CCCC1=O [Nefiracetam]	cell viability	113
CC12CC(=CO)C(=O)CC1CCC1C2CCC2(C)C1CCC2(C)O (centres undefined) [Oxymetholone]	cell viability	124
CN1C2CCC1CC(OC(=O)C(CO)c1ccccc1)C2.CN1C2CCC1CC(OC(=O)C(CO)c1ccccc1)C2.O.O=S(=O)(O)O (centres undefined) [Atropine]	cell viability	101
O=C(OC1CC2CCC(C1)[N+]21CCCC1)C(O)(c1ccccc1)c1ccccc1.[Cl-] (centres undefined) [Trospium chloride]	cell viability	165
CCC(C(N)=O)N1CCCC1=O (centres undefined) [Levetiracetam]	cell viability	120
O=S(=O)(F)Cc1ccccc1	cell viability	100

====

system: HCI16; experiment: cell viability (% of vehicle); higher = less cytotoxic; conditions: 10 µM; 72 h
Reported cell viability values are given for each entry in this list.

compound	system tested	cell viability
COc1ccc(C(CN(C)C)C2(O)CCCCC2)cc1.Cl (centres undefined) [Venlafaxine]	HCI16	106
O=C(O)c1nn(Cc2ccc(Cl)cc2Cl)c2ccccc12 [Lonidamine]	HCI16	124
C=CCN1CCC23c4c5ccc(O)c4OC2C(=O)CCC3(O)C1C5.Cl (centres undefined) [Naloxone HCl]	HCI16	112
C=C1CC2C(CCC3(C)C(=O)CCC23)C2(C)C=CC(=O)C=C12 (centres undefined) [Exemestane]	HCI16	124
Cl.NCC(O)c1ccc(O)cc1 (racemic) [(+,-)-Octopamine HCl]	HCI16	120
CC(O)(CS(=O)(=O)c1ccc(F)cc1)C(=O)Nc1ccc(C#N)c(C(F)(F)F)c1 (centres undefined) [Bicalutamide]	HCI16	108
CN1[C@@H]2C[C@@H](O)C[C@H]1[C@@H]1O[C@@H]12 [Scopine]	HCI16	99
Cn1c(COP(=O)(NCCBr)NCCBr)cnc1[N+](=O)[O-]	HCI16	44.9
CC(NC(C)(C)C)C(=O)c1cccc(Cl)c1.Cl (centres undefined) [Bupropion hydrochloride]	HCI16	113

meta.source: the supplement of paper PMC6992640
